# RUN_DESCRIPTION: In vivo pharmacokinetics in rats
# EXPERIMENTAL_CONTEXT: rat, plasma, iv; male Sprague-Dawley rats, 0.3 mg/kg
ASSAY_ENDPOINT: C0

MOLECULE: [2H]C([2H])([2H])N(C([2H])([2H])[2H])C([2H])([2H])C([2H])([2H])c1c[nH]c2cccc(O)c12 [Compound I-45]
RESULT: 76.5 ng/mL

* * *

# RUN_DESCRIPTION: In vivo pharmacokinetics in rats
# EXPERIMENTAL_CONTEXT: rat, plasma, iv; male Sprague-Dawley rats, 0.3 mg/kg

COMPOUND: [2H]C([2H])([2H])N(C([2H])([2H])[2H])C([2H])([2H])C([2H])([2H])c1c[nH]c2cccc(O)c12 [Compound I-45]
AUC(0-inf), ng·h/mL: 117
